Catalogue of Activity readings, one per entry.
molecular target: Protein cereblon/von Hippel-Lindau disease tumor suppressor (Homo sapiens, UniProt P40337+Q96SW2); test: Protac activity at VHL/CRBN in human HeLa cells assessed as pVHL30 protein abundance at 10 nM after 4 hrs by Western blot analysis relative to DMSO; format: cell-based
Sequence (P40337 whole entry, looked up): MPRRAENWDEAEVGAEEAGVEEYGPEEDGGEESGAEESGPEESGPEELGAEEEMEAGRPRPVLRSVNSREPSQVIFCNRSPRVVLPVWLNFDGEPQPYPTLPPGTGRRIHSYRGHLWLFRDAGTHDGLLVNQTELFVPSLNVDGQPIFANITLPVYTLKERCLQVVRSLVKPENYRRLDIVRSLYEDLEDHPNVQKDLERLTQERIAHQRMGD
Sequence (Q96SW2 whole entry, looked up): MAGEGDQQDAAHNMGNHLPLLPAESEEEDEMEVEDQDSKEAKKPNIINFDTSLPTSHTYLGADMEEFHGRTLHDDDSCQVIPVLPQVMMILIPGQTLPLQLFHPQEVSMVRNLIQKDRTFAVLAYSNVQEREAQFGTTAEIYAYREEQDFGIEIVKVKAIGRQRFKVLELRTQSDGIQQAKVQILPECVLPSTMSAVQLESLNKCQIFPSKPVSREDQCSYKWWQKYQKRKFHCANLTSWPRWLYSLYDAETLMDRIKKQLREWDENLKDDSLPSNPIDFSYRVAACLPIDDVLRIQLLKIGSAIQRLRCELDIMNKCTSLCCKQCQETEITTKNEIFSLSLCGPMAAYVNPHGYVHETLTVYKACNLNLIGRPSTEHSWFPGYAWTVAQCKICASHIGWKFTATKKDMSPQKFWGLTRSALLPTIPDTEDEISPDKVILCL
A number alone suffices; assume %.

Before answering, review these 3 worked examples.
molecule="Cc1ncsc1-c1ccc(CNC(=O)[C@@H]2C[C@@H](O)CN2C(=O)[C@@H](NC(=O)COCCOCCOCCOCCOCC(=O)NCCNc2cccc3c2C(=O)N(C2CCC(=O)NC2=O)C3=O)C(C)(C)C)cc1 (stereo not given in full)" test_result=53
molecule="Cc1ncsc1-c1ccc(CNC(=O)[C@@H]2C[C@@H](O)CN2C(=O)[C@@H](NC(=O)C2(F)CC2)C(C)(C)C)c(OCCOCCOCCOCCOCCOCC(=O)NCCNc2cccc3c2C(=O)N(C2CCC(=O)NC2=O)C3=O)c1 (stereo not given in full)" test_result=76
molecule="Cc1ncsc1-c1ccc(CNC(=O)[C@@H]2C[C@@H](O)CN2C(=O)[C@@H](NC(=O)COCCOCCOCCOCCOCCOCCOCCOCCOCC(=O)NCCNc2cccc3c2C(=O)N(C2CCC(=O)NC2=O)C3=O)C(C)(C)C)cc1 (stereo not given in full)" test_result=54

INPUT: Item Cc1ncsc1-c1ccc(CNC(=O)[C@@H]2C[C@@H](O)CN2C(=O)[C@@H](NC(=O)C2(F)CC2)C(C)(C)SCCOCCOCCOCCOCCOCC(=O)NCCNc2cccc3c2C(=O)N(C2CCC(=O)NC2=O)C3=O)cc1 (stereo not given in full) has what recorded Activity?
OUTPUT: 87

INPUT: Record request: Activity value, item Cc1ncsc1-c1ccc(CNC(=O)[C@@H]2C[C@@H](O)CN2C(=O)[C@@H](NC(=O)COCCCCCCOCC(=O)NCCNc2cccc3c2C(=O)N(C2CCC(=O)NC2=O)C3=O)C(C)(C)C)cc1 (stereo not given in full)
OUTPUT: 50

###

target: Protein cereblon/von Hippel-Lindau disease tumor suppressor (Homo sapiens, UniProt P40337+Q96SW2); test: Protac activity at VHL/CRBN in human HeLa cells assessed as pVHL19 protein abundance at 10 nM after 4 hrs by Western blot analysis relative to DMSO; assay type: cell-based
MEASURED ATTRIBUTE: Activity (%)
Answer with a number only, understood to be in %.

For orientation, consider the following solved cases.
compound="Cc1ncsc1-c1ccc(CNC(=O)[C@@H]2C[C@@H](O)CN2C(=O)[C@@H](NC(=O)C2(F)CC2)C(C)(C)SCCOCCOCCOCCOCCOCC(=O)NCCNc2cccc3c2C(=O)N(C2CCC(=O)NC2=O)C3=O)cc1 (stereo partly drawn)" measured_attribute=Activity result_units=% test_result=89
compound="Cc1ncsc1-c1ccc(CNC(=O)[C@@H]2C[C@@H](O)CN2C(=O)[C@@H](NC(=O)C2(F)CC2)C(C)(C)C)c(OCCCCC(=O)NCCNc2cccc3c2C(=O)N(C2CCC(=O)NC2=O)C3=O)c1 (stereo partly drawn)" measured_attribute=Activity result_units=% test_result=100

Attention now turns to another entry.
INPUT: Return reported Activity; argument: Cc1ncsc1-c1ccc(CNC(=O)[C@@H]2C[C@@H](O)CN2C(=O)[C@@H](NC(=O)COCCCCCOCCOCCCCCOCC(=O)NCCNc2cccc3c2C(=O)N(C2CCC(=O)NC2=O)C3=O)C(C)(C)C)cc1 (stereo partly drawn)
OUTPUT: 95

###

biological target: Protein cereblon/von Hippel-Lindau disease tumor suppressor (Homo sapiens, UniProt P40337+Q96SW2); assay: Protac activity at VHL/CRBN in human HeLa cells assessed as CRBN protein abundance at 10 nM after 4 hrs by Western blot analysis relative to DMSO; format: cell-based
Quick list: Activity per entry.
Please respond with the number in % and leave the unit unwritten.

INPUT: # Activity lookup, item O=C1CCC(N2C(=O)c3cccc(NCCOCCOCCNc4cccc5c4C(=O)N(C4CCC(=O)NC4=O)C5=O)c3C2=O)C(=O)N1 (stereo not given)
OUTPUT: 38

INPUT: Which value of Activity has been reported for Cc1ncsc1-c1ccc(CNC(=O)[C@@H]2C[C@@H](O)CN2C(=O)[C@@H](NC(=O)C2(F)CC2)C(C)(C)C)c(OCCOCCOCCOCCOCCOCC(=O)NCCNc2cccc3c2C(=O)N(C2CCC(=O)NC2=O)C3=O)c1 (stereo not given in full) in the records?
OUTPUT: 86

INPUT: I am curious: what Activity value has been reported for Cc1ncsc1-c1ccc(CNC(=O)[C@@H]2C[C@@H](O)CN2C(=O)[C@@H](NC(=O)COCCOCCOCCOCC(=O)NCCNc2cccc3c2C(=O)N(C2CCC(=O)NC2=O)C3=O)C(C)(C)C)cc1 (stereo not given in full) ?
OUTPUT: 91

INPUT: I would be grateful if you could share the reported Activity for Cc1ncsc1-c1ccc(CNC(=O)[C@@H]2C[C@@H](O)CN2C(=O)[C@@H](NC(=O)COCCOCCOCCOCCOCC(=O)NCCNc2cccc3c2C(=O)N(C2CCC(=O)NC2=O)C3=O)C(C)(C)C)cc1 (stereo not given in full) .
OUTPUT: 81

INPUT: Quick one: Activity of Cc1ncsc1-c1ccc(CNC(=O)[C@@H]2C[C@@H](O)CN2C(=O)[C@@H](NC(=O)C2(F)CC2)C(C)(C)SCCOCCOCCOCC(=O)NCCNc2cccc3c2C(=O)N(C2CCC(=O)NC2=O)C3=O)cc1 (stereo not given in full) ?
OUTPUT: 78

###

Catalogue of Activity values
target: Protein cereblon/von Hippel-Lindau disease tumor suppressor (Homo sapiens, UniProt P40337+Q96SW2); experiment: Protac activity at VHL/CRBN in human HeLa cells assessed as CRBN protein abundance at 10 nM after 4 hrs by Western blot analysis relative to DMSO; format: cell-based
Could you write the number and then its unit?

INPUT: Any idea what Activity was measured for Cc1ncsc1-c1ccc(CNC(=O)[C@@H]2C[C@@H](O)CN2C(=O)[C@@H](NC(=O)C2(F)CC2)C(C)(C)SCCCCC(=O)NCCNc2cccc3c2C(=O)N(C2CCC(=O)NC2=O)C3=O)cc1 (stereo partly drawn) ?
OUTPUT: 82%

INPUT: Which Activity value is on record for Cc1ncsc1-c1ccc(CNC(=O)[C@@H]2C[C@@H](O)CN2C(=O)[C@@H](NC(=O)COCCOCCOCCOCCOCCOCC(=O)NCCNc2cccc3c2C(=O)N(C2CCC(=O)NC2=O)C3=O)C(C)(C)C)cc1 (stereo partly drawn) ?
OUTPUT: 85%

INPUT: Recorded Activity of Cc1ncsc1-c1ccc(CNC(=O)[C@@H]2C[C@@H](O)CN2C(=O)[C@@H](NC(=O)COCCOCCOCCOCCOCCOCC(=O)N[C@H](C(=O)N2C[C@H](O)C[C@H]2C(=O)NCc2ccc(-c3scnc3C)cc2)C(C)(C)C)C(C)C)cc1 , please.
OUTPUT: 87%

###

molecular target: Protein cereblon/von Hippel-Lindau disease tumor suppressor (Homo sapiens, UniProt P40337+Q96SW2); test: Protac activity at VHL/CRBN in human HeLa cells assessed as pVHL19 protein abundance at 1 uM after 4 hrs by Western blot analysis relative to DMSO; assay type: cell-based
MEASURED ATTRIBUTE: Activity (%)
// units = %; emit number, no label

Some solved cases for reference:
molecule="Cc1ncsc1-c1ccc(CNC(=O)[C@@H]2C[C@@H](O)CN2C(=O)[C@@H](NC(=O)C2(F)CC2)C(C)(C)SCCCCC(=O)NCCNc2cccc3c2C(=O)N(C2CCC(=O)NC2=O)C3=O)cc1 (stereo not given in full)" result_units=% test_result=117
molecule="Cc1ncsc1-c1ccc(CNC(=O)[C@@H]2C[C@@H](O)CN2C(=O)[C@@H](NC(=O)COCCCCCCOCC(=O)NCCNc2cccc3c2C(=O)N(C2CCC(=O)NC2=O)C3=O)C(C)(C)C)cc1 (stereo not given in full)" result_units=% test_result=100
molecule="Cc1ncsc1-c1ccc(CNC(=O)[C@@H]2C[C@@H](O)CN2C(=O)[C@@H](NC(=O)C2(F)CC2)C(C)(C)C)c(OCCOCCOCCOCCOCCOCC(=O)NCCNc2cccc3c2C(=O)N(C2CCC(=O)NC2=O)C3=O)c1 (stereo not given in full)" result_units=% test_result=103

INPUT: // Activity lookup, key: Cc1ncsc1-c1ccc(CNC(=O)[C@@H]2C[C@@H](O)CN2C(=O)[C@@H](NC(=O)COCCOCCOCC(=O)NCCNc2cccc3c2C(=O)N(C2CCC(=O)NC2=O)C3=O)C(C)(C)C)cc1 (stereo not given in full)
OUTPUT: 102

INPUT: I'd like to know its Activity. The molecule in question is Cc1ncsc1-c1ccc(CNC(=O)[C@@H]2C[C@@H](O)CN2C(=O)[C@@H](NC(=O)COCCOCCOCCOCCOCCOCC(=O)N[C@H](C(=O)N2C[C@H](O)C[C@H]2C(=O)NCc2ccc(-c3scnc3C)cc2)C(C)(C)C)C(C)C)cc1
OUTPUT: 97
